Values compiled from ChEMBL document CHEMBL1201862.

Tested on: SNB-19
TEST METHOD NOTES: NCI tumour cell line growth inhibition, 48 h
Active and inactive are the calls of the source. Cut-off read from the data, not from the text of the source: active = GI50 up to about 1.1 µM and inactive = higher. Where a SMILES comes first, the peptide text is derived from it. [ ]: non-standard residue; d: D form. The star is where a group is joined. ξ: configuration not given here. ξPhe(4-NO2) = NC(Cc1ccc([N+](=O)[O-])cc1)C(=O)O; Boc = CC(C)(C)OC(=O)*

{"columns": ["COMPOUND", "GI50"],
 "data": [
  ["CCOC(=O)CCC(NC(=O)Cc1ccc(Nc2nc3ccccc3nc2-c2cccs2)cc1)C(=O)OCC (stereo not drawn)", "24.7 µM (inactive)"],
  ["COC(=O)c1c(C)[n+]([O-])c2cc(Cl)c(Cl)cc2[n+]1[O-]", "27.4 µM (inactive)"],
  ["CC1(C)CC(=O)C2=C(C1)NC(=S)C(C#N)C2c1ccccc1 (stereo not drawn)", "> 100 µM (inactive)"],
  ["CCNC(=O)CNC(=O)C(Cc1ccc([N+](=O)[O-])cc1)NC(=O)OC(C)(C)C (stereo not drawn) (Boc-[ξPhe(4-NO2)]-Gly-NHEt)", "> 100 µM (inactive)"],
  ["O=C(Nn1c(-c2ccccc2)nc2ccccc2c1=O)c1cccc([N+](=O)[O-])c1", "61.1 µM (inactive)"],
  ["COc1ccc(C(=O)OC2C=COC(C)C2OC(=O)c2ccc(OC)cc2)cc1 (stereo not drawn)", "41.5 µM (inactive)"],
  ["COc1cc2c(cc1OC)C(=O)/C(=C/c1cc(Cl)cc(Cl)c1)C2", "> 26.4 µM (inactive)"],
  ["COC(=O)C12C(=O)CC3CCC1C32C(=O)OC (stereo not drawn)", "> 100 µM (inactive)"],
  ["COc1cccc(C(NC2=NCCC=N2)c2cc3c(cc2O)OCO3)c1O (stereo not drawn)", "46.1 µM (inactive)"],
  ["CC(C)(C)C(=O)C(N)C(=O)C(C)(C)C", "> 100 µM (inactive)"],
  ["N#C/C(=C1\\SC(C(N)=O)=C(N)N1c1ccccc1)c1nc2ccccc2[nH]1", "> 100 µM (inactive)"],
  ["CC1C(=O)C(C)C(c2ccccc2)N(N=O)C1c1ccccc1 (stereo not drawn)", "64.4 µM (inactive)"],
  ["CC1=[N+]([O-])C(C)(C)N(O)C1(C)C", "> 100 µM (inactive)"],
  ["COc1cc2c(cc1OC)CC(N=[N+]=[N-])c1cc(OC)c(OC)cc1/C=C\\2 (stereo not drawn)", "34 µM (inactive)"],
  ["O=C(CC(=O)N(C(=O)c1ccccc1)c1ccc(Cl)cc1)N/N=C\\c1cc(/N=N/c2ccccc2Cl)ccc1O", "18.2 µM (inactive)"],
  ["CC1(C)CC2=NO[Se]3=C2C(=NO3)C1", "4.08 µM (inactive)"],
  ["c1cc2c(cc1NC1=NCCO1)CCCC2", "21.7 µM (inactive)"],
  ["CCOC(=O)c1ccc(NC(NC(=O)CC)(C(F)(F)F)C(F)(F)F)cc1", "> 100 µM (inactive)"],
  ["CCC1OC2C(CC=C(C)C)=C3OC(C)(O)C(C)(CC)C(=O)C3=C3OC(=O)C=C1C32 (stereo not drawn)", "27.4 µM (inactive)"],
  ["Cc1ccccc1NC(=O)C(=O)Cc1nc2ccccc2s1", "> 100 µM (inactive)"],
  ["CC1=C(/C(C)=N/NC(=O)C(N)=O)Sc2ccccc2N1", "> 100 µM (inactive)"],
  ["CC(=O)OC1COC(n2c(=S)n(-c3ccc(C)cc3)c(=O)c3ccccc32)C(OC(C)=O)C1OC(C)=O (stereo not drawn)", "> 100 µM (inactive)"],
  ["O=[N+]([O-])c1ccc(C2N3CCCCC3[C@@H]3c4[nH]c5ccccc5c4CCN23)cc1 (stereo partly drawn)", "16.6 µM (inactive)"],
  ["CCOC(=O)Cc1c(C(=O)OCC)[n+]([O-])c2cc(Cl)c(Cl)cc2[n+]1[O-]", "3.5 µM (inactive)"],
  ["Nc1ccc(C(=O)N/C(=C\\c2ccc3c(c2)OCO3)c2nc3ccc4c(c3[nH]2)C(=O)c2ccccc2C4=O)cc1", "30 µM (inactive)"],
  ["C=CCNS(=O)(=O)c1ncnc2[nH]cnc12", "> 100 µM (inactive)"],
  ["COc1cc(/C=C2\\N=C(c3ccccc3)N(/N=C/c3cc4cc(C)ccc4nc3Cl)C2=O)cc(OC)c1OC", "64.7 µM (inactive)"],
  ["COc1ccc2nc3ccccc3c(NCCCN(C)CCCl)c2c1", "0.601 µM (active)"],
  ["CSC(CC(=O)O)C(=O)O (stereo not drawn)", "> 100 µM (inactive)"],
  ["CN(Cc1cc(Cl)cc(Cl)c1O)Cc1c(O)ccc2ccccc12", "19.8 µM (inactive)"],
  ["COC(=O)c1ccccc1N1C(=O)Cc2ccccc2C1=O", "> 100 µM (inactive)"],
  ["c1ccc2c(c1)nnn2CN1CCOCC1", "> 100 µM (inactive)"],
  ["C=C(C)C1CCC2=CC(CC3(C)OC3C3=CC(C(=O)OC)=C(C1)O3)OC2=O (stereo not drawn)", "> 100 µM (inactive)"],
  ["O=C(/C=C/c1ccc(Cl)c(Cl)c1)Oc1ccc(/C=C2\\CCCCC2=O)cc1", "> 100 µM (inactive)"],
  ["O=C1c2ccccc2C(=O)c2c(OCC3CO3)ccc(OCC3CO3)c21 (stereo not drawn)", "7.67 µM (inactive)"],
  ["CC1(C)CCc2cc3c(-c4ccccc4)cc(=O)oc3cc2O1", "87.5 µM (inactive)"],
  ["O=C(NN1C(=O)CS(=O)(=O)C1c1cccc(F)c1)c1ccncc1 (stereo not drawn)", "> 100 µM (inactive)"],
  ["CCC1CCCCN1CC(C(C)=O)C(c1ccccc1)c1c(O)c2ccccc2oc1=O (stereo not drawn)", "> 100 µM (inactive)"],
  ["CC(C)OC(=O)c1cccnc1/C=N/O", "> 100 µM (inactive)"],
  ["CC1=C(C(=O)Nc2cc(F)c(F)cc2F)C(c2ccc3c(c2)OCO3)C(C(=O)Nc2cc(F)c(F)cc2F)=C(C)N1", "38.4 µM (inactive)"],
  ["CC1CN=C(NCc2ccccc2)S1 (stereo not drawn)", "> 100 µM (inactive)"],
  ["O=c1nc2sc3ccc4ccccc4c3n2nc1-c1ccccc1", "29.4 µM (inactive)"],
  ["CCCCOc1ccc(/C=C/C2=[N+](CCO)CCO2)cc1", "> 100 µM (inactive)"]
]}
